# measured target: Lipolase (Thermomyces lanuginosus, UniProt O59952)
# Construct: purchased Sigma-Aldrich
# Sequence (O59952 23-291): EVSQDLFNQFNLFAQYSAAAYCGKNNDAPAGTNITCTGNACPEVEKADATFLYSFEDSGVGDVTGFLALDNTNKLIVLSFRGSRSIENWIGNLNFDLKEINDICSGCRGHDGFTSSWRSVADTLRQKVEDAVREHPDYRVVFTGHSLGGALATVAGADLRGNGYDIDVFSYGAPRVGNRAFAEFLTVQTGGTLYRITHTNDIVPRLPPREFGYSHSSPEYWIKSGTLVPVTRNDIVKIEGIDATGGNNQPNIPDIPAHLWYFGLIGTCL
# assay summary: storage stability of lipase (Lipolase activity, pNitrophenol-valerate substrate) in liquid formulations at 37° C.
# Format: biochemical, Thermomyces lanuginosa
# assay setup: base formulation IV.; component (a) 4.0 wt %; Lipolase 0.4 wt %; storage at 37° C.; 1 d
outcome measure: lipase activity (%)
Give bare numbers, in %.

# example entries with known answers
| molecule | lipase activity, % |
| --- | --- |
| C[N+](C)(C)CCO.C[N+](C)(C)CCO.O=C([O-])CC(O)(CC(=O)O)C(=O)[O-] | 93 |
| C[N+](C)(C)CCO.C[N+](C)(C)CCO.C[N+](C)(C)CCO.O=C([O-])CC(O)(CC(=O)[O-])C(=O)[O-] | 91 |
| C[N+](C)(C)CCO.[Cl-] [C-(A.15), Choline chloride] | 95 |

From here, focus on the item given below.
For Lipolase (Thermomyces lanuginosus, UniProt O59952), give lipase activity of the listed molecule: C[N+](C)(C)CCO.C[N+](C)(C)CCO.O=C([O-])C(O)C(O)C(=O)[O-] (stereo not shown)
90

###

# measured target: Lipolase (Thermomyces lanuginosus, UniProt O59952)
# Construct: purchased Sigma-Aldrich
# Sequence (O59952 23-291): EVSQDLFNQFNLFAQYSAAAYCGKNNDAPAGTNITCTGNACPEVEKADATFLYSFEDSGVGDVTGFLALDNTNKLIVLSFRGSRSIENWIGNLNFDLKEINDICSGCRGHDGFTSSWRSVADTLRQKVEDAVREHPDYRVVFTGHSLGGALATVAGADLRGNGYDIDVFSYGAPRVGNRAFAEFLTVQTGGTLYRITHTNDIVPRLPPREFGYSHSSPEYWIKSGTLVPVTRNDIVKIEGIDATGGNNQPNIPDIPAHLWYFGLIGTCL
# assay summary: storage stability of lipase (Lipolase activity, pNitrophenol-valerate substrate) in liquid formulations at 37° C.
# Type: biochemical, Thermomyces lanuginosa
# assay setup: base formulation I.; component (a) 2.5 wt %; Lipolase 0.4 wt %; storage at 37° C.; 6 d
Consider the following compounds; for each one, report its lipase activity.
One number for each entry, in %.

Some solved entries appear below for comparison.
| compound | lipase activity, % |
| --- | --- |
| C[N+](C)(C)CCO.C[N+](C)(C)CCO.C[N+](C)(C)CCO.O=C([O-])CC(O)(CC(=O)[O-])C(=O)[O-] | 72 |
| C[N+](C)(C)CCO.C[N+](C)(C)CCO.O=C([O-])C(O)C(O)C(=O)[O-] (stereo not shown) | 68 |
| C[N+](C)(C)CCO.C[N+](C)(C)CCO.O=C([O-])CC(O)(CC(=O)O)C(=O)[O-] | 70 |

Give the reported value of lipase activity for this record: C[N+](C)(C)CCO.[Cl-] [C-(A.15), Choline chloride]
67
